Entry source: the supplement of paper PMC7858590

Tested on: human monocyte-derived macrophages (M0)
TEST: cell shape (eccentricity) Z-score vs DMSO control; higher = more elongated, M2-like morphology
ASSAY CONTEXT: 20 µM; 24 h; macrophage state: M0 (M-CSF)
Over roughly 3,800 compounds, “cell shape (eccentricity) Z-score vs DMSO control” has its median near 1.1; the lowest 2% begin near -4.7. The sample holds the lowest values, similar compounds and a random draw of the others, so the mix is not that of the screen.
Reported cell shape (Z-score) values for a set of molecules
OBSERVATION TYPE: cell shape (Z-score)

{"MOLECULE": "CCCSc1ccc2[nH]c(NC(=O)OC)nc2c1", "OBSERVATION TYPE": "cell shape (Z-score)", "OBSERVED VALUE": -3.67}
{"MOLECULE": "C[C@@H]1O[C@@H](Oc2ccc(-c3coc4cc(O[C@@H]5O[C@@H](C)[C@H](O)[C@@H](O)[C@H]5O)cc(O)c4c3=O)cc2)[C@H](O)[C@H](O)[C@H]1O", "OBSERVATION TYPE": "cell shape (Z-score)", "OBSERVED VALUE": -0.632}
{"MOLECULE": "CCOC(=O)[C@H](CCc1ccccc1)N[C@@H](C)C(=O)N1Cc2ccccc2C[C@H]1C(=O)O", "OBSERVATION TYPE": "cell shape (Z-score)", "OBSERVED VALUE": 2.22}
{"MOLECULE": "CC(=O)O[C@H]1C(=O)[C@@]2(C)[C@H]([C@H](OC(=O)c3ccccc3)[C@]3(O)C[C@H](OC(=O)[C@H](O)[C@@H](NC(=O)c4ccccc4)c4ccccc4)C(C)=C1C3(C)C)[C@]1(OC(C)=O)CO[C@@H]1C[C@@H]2O", "OBSERVATION TYPE": "cell shape (Z-score)", "OBSERVED VALUE": -5.5}
{"MOLECULE": "COC(=O)Nc1nc2cc(SC(C)C)ccc2[nH]1", "OBSERVATION TYPE": "cell shape (Z-score)", "OBSERVED VALUE": -4.88}
{"MOLECULE": "O=C1c2ccccc2CCC1CNCCc1ccc(O)cc1 (configuration not stated)", "OBSERVATION TYPE": "cell shape (Z-score)", "OBSERVED VALUE": 2.69}
{"MOLECULE": "O=C(O)c1cc2cc(OCc3ccccc3)ccc2[nH]1", "OBSERVATION TYPE": "cell shape (Z-score)", "OBSERVED VALUE": 1.63}
{"MOLECULE": "COC1=CC(=O)CC(C)C12Oc1cc(OC)cc(O)c1C2=O (configuration not stated)", "OBSERVATION TYPE": "cell shape (Z-score)", "OBSERVED VALUE": 1.27}
{"MOLECULE": "O=C(O)CCCc1ccccc1", "OBSERVATION TYPE": "cell shape (Z-score)", "OBSERVED VALUE": 0.59}
{"MOLECULE": "Cc1cc(O)cc2oc3cc(O)cc(O)c3c(=O)c12", "OBSERVATION TYPE": "cell shape (Z-score)", "OBSERVED VALUE": -1.58}
{"MOLECULE": "CC#CCOC(=O)c1c(C)nc2sc3c(c2c1N)CCC(O)C3 (configuration not stated)", "OBSERVATION TYPE": "cell shape (Z-score)", "OBSERVED VALUE": -0.105}
{"MOLECULE": "c1ccc2nc(C3=NCCN3)cnc2c1", "OBSERVATION TYPE": "cell shape (Z-score)", "OBSERVED VALUE": 1.3}
{"MOLECULE": "COc1ccc(-c2oc3c(CC=C(C)C)c(O[C@@H]4O[C@H](CO)[C@@H](O)[C@H](O)[C@H]4O)cc(O)c3c(=O)c2O[C@@H]2O[C@@H](C)[C@H](O)[C@@H](O)[C@H]2O)cc1", "OBSERVATION TYPE": "cell shape (Z-score)", "OBSERVED VALUE": -2.65}
{"MOLECULE": "C=CC(=O)Nc1cccc(Sc2nc(Nc3ccc(N4CCN(C)CC4)cc3)ncc2Cl)c1", "OBSERVATION TYPE": "cell shape (Z-score)", "OBSERVED VALUE": 0.842}
{"MOLECULE": "O=C(CCCc1ccc(-c2ccccc2F)cc1)Nc1ccc(O)cc1", "OBSERVATION TYPE": "cell shape (Z-score)", "OBSERVED VALUE": -4.74}
{"MOLECULE": "COC1=C(N)C(=O)c2nc(-c3nc(C(=O)O)c(C)c(-c4ccc(OC)c(OC)c4O)c3N)ccc2C1=O", "OBSERVATION TYPE": "cell shape (Z-score)", "OBSERVED VALUE": 0.0737}
{"MOLECULE": "CN(C)CCCSC(=N)N", "OBSERVATION TYPE": "cell shape (Z-score)", "OBSERVED VALUE": 0.27}
{"MOLECULE": "CCC(C)C(=O)O[C@H]1C[C@H](O)C=C2C=C[C@H](C)[C@H](CC[C@@H](O)C[C@@H](O)CC(=O)O)C21 (some centres not stated)", "OBSERVATION TYPE": "cell shape (Z-score)", "OBSERVED VALUE": -0.754}
{"MOLECULE": "C=C1C(=O)OC2CC3(C)CCC=C(CO)C3CC12 (configuration not stated)", "OBSERVATION TYPE": "cell shape (Z-score)", "OBSERVED VALUE": -3.71}
{"MOLECULE": "CCCOc1ccc2[nH]c(NC(=O)OC)nc2c1", "OBSERVATION TYPE": "cell shape (Z-score)", "OBSERVED VALUE": -1.59}
{"MOLECULE": "CC(=O)O[C@@H]1[C@@H](O)[C@H](C)O[C@@H](O[C@H]2[C@@H]3C=CO[C@@H](O[C@@H]4O[C@H](CO)[C@@H](O)[C@H](O)[C@H]4O)[C@@H]3[C@@]3(CO)O[C@@H]23)[C@@H]1OC(=O)/C=C/c1ccc(O)cc1", "OBSERVATION TYPE": "cell shape (Z-score)", "OBSERVED VALUE": -0.936}
{"MOLECULE": "c1ccc2nc(C3=NCCN3)ccc2c1", "OBSERVATION TYPE": "cell shape (Z-score)", "OBSERVED VALUE": 0.187}
